Assay: Aqueous solubility, saturation shake-flask method, UV absorbance
Details: phosphate buffer, pH 7, aqueous buffer, thermodynamic from solid
Measure Name: log10 of solubility at 48 h (log10 of the value in µg/mL)
Heads up: the numbers are on a log10 scale; they represent solubility at 48 h in µg/mL.

Solved cases (8 shown):
Compound | log10 of solubility at 48 h
COc1cc(NS(=O)(=O)c2ccc(N)cc2)cc(OC)c1OC [Compound 26] | 1.45
CCN(c1cc(OC)c(OC)c(OC)c1)S(=O)(=O)c1ccc(OC)c(N)c1 [Compound 43] | 1.76
COc1ccc(S(=O)(=O)Nc2cc(OC)c(OC)c(OC)c2Br)cc1 [Compound 20] | 1.94
CCN(c1cc(OC)c(OC)c(OC)c1)S(=O)(=O)c1ccc(OC)cc1 [Compound 3] | 1.48
COc1ccc(S(=O)(=O)N(c2cc(OC)c(OC)c(OC)c2)S(=O)(=O)c2ccc(OC)cc2)cc1 [Compound 1b] | 2.03
COc1ccc(S(=O)(=O)N(CC#N)c2cc(OC)c(OC)c(OC)c2)cc1 [Compound 6] | 1.52
COc1cc(NS(=O)(=O)c2ccc(N(C)C)cc2)cc(OC)c1OC [Compound 28] | 1.18
COc1ccc(S(=O)(=O)Nc2cc(OC)c(OC)c(OC)c2N)cc1 [Compound 12] | 2.20

So, COc1cc(N(CC#N)S(=O)(=O)c2ccc(N(C)C)cc2)cc(OC)c1OC [Compound 32] ? Its log10 of solubility at 48 h was 0.90

So, COc1ccc(S(=O)(=O)Nc2cc(OC)c(OC)c(OC)c2[N+](=O)[O-])cc1 [Compound 11] ? Its log10 of solubility at 48 h was 1.94

So, COc1cc(N(C(C)=O)S(=O)(=O)c2ccc(N(C)C)cc2)cc(OC)c1OC [Compound 31] ? Its log10 of solubility at 48 h was 1.26

So, COc1ccc(S(=O)(=O)Nc2cc(OC)c(OC)c(OC)c2)cc1 [Compound 1a] ? Its log10 of solubility at 48 h was 1.92

So, COc1ccc(S(=O)(=O)n2nnc3c(OC)c(OC)c(OC)cc32)cc1 [Compound 23] ? Its log10 of solubility at 48 h was 1.61

So, CCN(c1cc(OC)c(OC)c(OC)c1)S(=O)(=O)c1ccc(N(C)C)cc1 [Compound 30] ? Its log10 of solubility at 48 h was 0.78

So, CNc1ccc(S(=O)(=O)N(C)c2cc(OC)c(OC)c(OC)c2)cc1 [Compound 38] ? Its log10 of solubility at 48 h was 1.20

So, COc1cc(N(C)S(=O)(=O)c2ccc(N)cc2)cc(OC)c1OC [Compound 27] ? Its log10 of solubility at 48 h was 1.40

So, COc1ccc(S(=O)(=O)Nc2cc(OC)c(OC)c(OC)c2NC(C)=O)cc1 [Compound 15] ? Its log10 of solubility at 48 h was 2.36

So, COc1ccc(S(=O)(=O)N(C)c2cc(OC)c(OC)c(OC)c2)cc1N [Compound 42] ? Its log10 of solubility at 48 h was 2.03
